Source of measurements: ChEMBL document CHEMBL4507273

test_target: 5-hydroxytryptamine receptor 5A (Homo sapiens)
Sequence (P47898 whole entry): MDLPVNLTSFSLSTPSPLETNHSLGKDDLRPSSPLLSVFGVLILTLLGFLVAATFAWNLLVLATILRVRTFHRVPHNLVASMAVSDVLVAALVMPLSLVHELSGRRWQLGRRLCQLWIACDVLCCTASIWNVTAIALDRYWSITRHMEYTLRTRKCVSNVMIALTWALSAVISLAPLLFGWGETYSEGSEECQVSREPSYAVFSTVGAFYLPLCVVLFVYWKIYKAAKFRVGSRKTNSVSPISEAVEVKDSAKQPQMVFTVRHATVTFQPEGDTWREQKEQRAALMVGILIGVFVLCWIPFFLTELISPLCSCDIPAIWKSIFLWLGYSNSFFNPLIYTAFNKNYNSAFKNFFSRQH
test_protocol: GPCRScan assay: inhibition of 5-HT5A
Design: radioligand conc. used [nm] 2.0 - 3.3, parental cells Flp-In CHO
applied_conditions: read-out: Ki
metric_name: Ki (nM)
Value expressed in nM; do not type the unit.

- CNCc1ccccc1-c1csc([C@@H](C)Nc2nc(C)nc3cc(OC)c(OC)cc23)c1: 2550

Q: Ki of CNCc1ccccc1-c1csc([C@H](C)Nc2nc(C)nc3cc(OC)c(OC)cc23)c1 on 5-hydroxytryptamine receptor 5A (Homo sapiens)?
Result: 1060

====

test_target: 5-hydroxytryptamine receptor 1D (Homo sapiens, UniProt P28221)
Sequence (P28221 whole entry): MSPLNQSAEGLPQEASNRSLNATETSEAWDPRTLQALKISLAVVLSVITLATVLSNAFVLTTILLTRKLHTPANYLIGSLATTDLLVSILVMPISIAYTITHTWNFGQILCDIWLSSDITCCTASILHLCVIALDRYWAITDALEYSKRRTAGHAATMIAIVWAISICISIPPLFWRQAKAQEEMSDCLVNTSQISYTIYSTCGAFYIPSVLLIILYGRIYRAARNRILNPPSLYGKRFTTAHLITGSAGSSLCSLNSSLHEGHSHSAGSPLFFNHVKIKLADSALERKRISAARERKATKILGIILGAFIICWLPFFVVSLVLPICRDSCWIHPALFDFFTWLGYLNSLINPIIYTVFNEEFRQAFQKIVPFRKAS
test_protocol: GPCRScan assay: inhibition of 5-HT1D
Set-up: radioligand conc. used [nm] 1.0 – 2.0, parental cells HEKT
applied_conditions: read-out: Ki
metric_name: pKi
Quick note: pKi values are minus log10 of concentrations in mol/L.

- CNCc1ccccc1-c1csc([C@@H](C)Nc2nc(C)nc3cc(OC)c(OC)cc23)c1 [BAY-293]: 6.74

Now for another entry.
Q: Name the reported pKi value associated with the molecule CNCc1ccccc1-c1csc([C@H](C)Nc2nc(C)nc3cc(OC)c(OC)cc23)c1 [BAY-294]
Result: 7.03
